Measured values drawn from ChEMBL document CHEMBL3880439 for this set.

test: Cytotoxicity against African green monkey 37RC cells by microscopic method; assay type: cell-based; conditions: chlorocebus aethiops
measurement_kind: TD100

{"molecule": "CC(C)(C)OC(=O)NC1C=CC(=O)C1 (stereo unspecified)", "measurement_kind": "TD100", "assay_value": "100 µM"}
{"molecule": "CC1C=CC(=O)/C1=C/c1ccccc1 (stereo unspecified)", "measurement_kind": "TD100", "assay_value": "50 µM"}
{"molecule": "CC(C)/C=C1/C(=O)C=C[C@H]1NC(=O)OC(C)(C)C", "measurement_kind": "TD100", "assay_value": "10 µM"}
{"molecule": "O=C1C=CC(NC(=O)c2ccccc2)C1 (stereo unspecified)", "measurement_kind": "TD100", "assay_value": "100 µM"}
{"molecule": "CC(C)/C=C1/C(=O)C=C[C@@H]1NC(=O)OC(C)(C)C", "measurement_kind": "TD100", "assay_value": "50 µM"}
{"molecule": "CC(C)/C=C1/C(=O)C=CC1NC(=O)OC(C)(C)C (stereo unspecified)", "measurement_kind": "TD100", "assay_value": "50 µM"}
{"molecule": "CCCCC1C=CC(=O)/C1=C/CC(C)C (stereo unspecified)", "measurement_kind": "TD100", "assay_value": "50 µM"}
{"molecule": "CC(C)/C=C1\\C(=O)C=CC1NC(=O)c1ccccc1 (stereo unspecified)", "measurement_kind": "TD100", "assay_value": "10 µM"}
{"molecule": "CC(C)(C)OC(=O)NC1C=CC(=O)/C1=C/c1ccccc1 (stereo unspecified)", "measurement_kind": "TD100", "assay_value": "10 µM"}
{"molecule": "CCCCC1C=CC(=O)/C1=C/C(C)C (stereo unspecified)", "measurement_kind": "TD100", "assay_value": "10 µM"}
{"molecule": "CC(C)(C)OC(=O)NC1C=CC(=O)/C1=C/c1ccc(Cl)cc1 (stereo unspecified)", "measurement_kind": "TD100", "assay_value": "10 µM"}
